Tested on: S. aureus MW2
Assay: Minimal inhibitory concentration, S. aureus MW2
Type: cell-based
Settings: Staphylococcus aureus, MRSA, 16 h, 16 hour minimal inhibitory concentration at 37° C.; read-out: MIC (μM) S. aureus MW2 (MRSA)
Property: MIC (µM)
Write the number in µM without appending the unit.

Here's what some known entries look like.
INSERT INTO results (molecule_smiles, observed_measurement) VALUES
  ('CO[C@@H]1[C@@H](OC(N)=O)[C@@H](O)[C@H](Oc2ccc3c(O)c(NC(=O)c4cccc(-c5ccc(C(C)C)cc5)c4)c(=O)oc3c2C)OC1(C)C', 0.48),
  ('CO[C@@H]1[C@@H](OC(N)=O)[C@@H](O)[C@H](Oc2ccc3c(OCCCO)c(NC(=O)c4ccc(O)c(CC=C(C)C)c4)c(=O)oc3c2C)OC1(C)C', 19),
  ('CO[C@@H]1[C@@H](OC(N)=O)[C@@H](O)[C@H](Oc2ccc3c(O)c(NC(=O)c4cccc(-c5ccc(Cl)cc5)c4)c(=O)oc3c2C)OC1(C)C', 0.98),
  ('CO[C@@H]1[C@@H](OC(N)=O)[C@@H](O)[C@H](Oc2ccc3c(O)c(NC(=O)c4cccc(-c5ccncc5)c4)c(=O)oc3c2C)OC1(C)C', 41);

Endpoint output: MIC of "CO[C@@H]1[C@@H](OC(=O)c2ccc(C)n2-c2ccccc2)[C@@H](O)[C@H](Oc2ccc3c(O)c(NC(=O)c4ccc(O)c(CC=C(C)C)c4)c(=O)oc3c2C)OC1(C)C" . Value?
33

Return reported MIC; argument: "CO[C@@H]1[C@@H](OC(N)=O)[C@@H](O)[C@H](Oc2ccc3c(O)c(NC(=O)c4cccc(-c5cccc(F)c5)c4)c(=O)oc3c2C)OC1(C)C"
10

Entry "CO[C@@H]1[C@@H](OC(N)=O)[C@@H](O)[C@H](Oc2ccc3c(O)c(NC(=O)c4cccc(-c5cccc(Br)c5)c4)c(=O)oc3c2C)OC1(C)C" has what MIC?
0.46

Please report the recorded MIC for "CO[C@@H]1[C@@H](OC(N)=O)[C@@H](O)[C@H](Oc2ccc3c(O)c(NC(=O)c4cc(Oc5ccccc5)ccn4)c(=O)oc3c2C)OC1(C)C" .
20

So what's the measured MIC for this one? "CO[C@@H]1[C@@H](OC(N)=O)[C@@H](O)[C@H](Oc2ccc3c(O)c(NC(=O)c4cc(Oc5ccccc5)c(O)cc4O)c(=O)oc3c2C)OC1(C)C"
19
